- Tested on: ventricular arrhythmias and death induced by the aconitine
- assay.text: Aconitine intoxication test in the anesthetized rat
- Format: in vivo
- run.conditions: i.v., 10 mg/kg; vs untreated control
Task for the reader: assign each of the following compounds its reported Prolongation of time of appearance of ventricular extrasystoles (ESV).

Asked: Which Prolongation of time of appearance of ventricular extrasystoles (ESV) value is on record for CC1(NC(=O)c2ccccc2)C2CC3CC1CN(C2)C3(C)C (centres unmarked) ?
Given back: +35%

Asked: Which Prolongation of time of appearance of ventricular extrasystoles (ESV) value is on record for COc1ccc(C(=O)NC2(C)C3CC4CC2CN(C3)C4(C)C)cc1 (centres unmarked) ?
Given back: +71%

Asked: Which Prolongation of time of appearance of ventricular extrasystoles (ESV) value is on record for CC1(NC(=O)CCc2ccccc2)C2CC3CC1CN(C2)C3(C)C (centres unmarked) ?
Given back: +60%

Asked: Which Prolongation of time of appearance of ventricular extrasystoles (ESV) value is on record for COc1ccc(CCC(=O)NC2(C)C3CC4CC2CN(C3)C4(C)C)cc1 (centres unmarked) ?
Given back: +51%

Asked: Which Prolongation of time of appearance of ventricular extrasystoles (ESV) value is on record for CC1(NC(=O)Cc2ccccc2)C2CC3CC1CN(C2)C3(C)C (centres unmarked) ?
Given back: +31%

Origin of measurements: patent US4578382A
